Biological target: G/T mismatch-specific thymine DNA glycosylase (Homo sapiens) (UniProt Q13569);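 further: human TDG cleavage of quenched duplex DNA oligonucleotides coupled to APE1, strand release read as fluorescence at 594 nm, inhibition of TDG activity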
Sequence (Q13569 whole entry): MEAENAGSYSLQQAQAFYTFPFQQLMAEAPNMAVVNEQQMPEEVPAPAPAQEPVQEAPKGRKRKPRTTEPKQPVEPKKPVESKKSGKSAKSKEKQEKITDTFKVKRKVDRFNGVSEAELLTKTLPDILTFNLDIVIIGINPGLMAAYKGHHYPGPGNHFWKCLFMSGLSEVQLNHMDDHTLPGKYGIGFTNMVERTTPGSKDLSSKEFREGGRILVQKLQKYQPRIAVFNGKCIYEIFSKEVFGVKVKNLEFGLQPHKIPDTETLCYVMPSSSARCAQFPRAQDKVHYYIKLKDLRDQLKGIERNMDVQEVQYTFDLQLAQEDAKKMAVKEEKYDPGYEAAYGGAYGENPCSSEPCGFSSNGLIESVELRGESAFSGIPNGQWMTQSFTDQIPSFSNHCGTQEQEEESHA
Conditions: Compound Concentration 1.0 uM, Hit No
Label 0 if inhibition falls below 50%; label 1 in every other case.

inhibition >= 50% for `CCN(CC)CCCCNc1ncc2cc(-c3cc(OC)cc(OC)c3)c(NC(=O)NC(C)(C)C)nc2n1` ?
0

inhibition >= 50% for `N[C@@H]1CCCN(c2c(/C=C3\SC(=O)NC3=O)cccc2-c2ccccc2)C1` ?
1

inhibition >= 50% for `O=C(Cc1ccccc1)Nc1nnc(N2CC[C@@H]3[C@H]2CN3c2cccnn2)s1` ?
0

inhibition >= 50% for `COc1cccc(CNC(=O)c2nc3scc(COCc4ccc(C(=O)O)cc4)c3c(=O)[nH]2)c1` ?
1

inhibition >= 50% for `CCOc1cc2ncc(C#N)c(Nc3ccc(OCc4cccc(F)c4)c(Cl)c3)c2cc1NC(=O)/C=C/CN(C)C` ?
0

inhibition >= 50% for `CN(C)C(=O)Cn1cc(-c2nc([C@@](C)(c3ccc(-c4cnc(N)nc4)cc3)C3CC3)no2)cn1` ?
0

inhibition >= 50% for `C[C@@H]1CN(c2cc(-c3nn(C)c4ccc(OC5(C)CC5)cc34)ncn2)C[C@H](C)O1` ?
0

inhibition >= 50% for `Cc1nc(-c2cn3c(n2)-c2ccc(-c4cnn(C(C)(C)C(N)=O)c4)cc2OCC3)n(C(C)C)n1` ?
1

inhibition >= 50% for `CCOc1cn(-c2ccc(F)cc2C)nc1C(=O)Nc1ccc(Oc2ccnc3cc(OC)c(OC)cc23)c(F)c1` ?
0

inhibition >= 50% for `Cc1c[nH]c2nccc(Oc3c(F)cc(Nc4cc(Cl)nc(N)n4)cc3F)c12` ?
1

inhibition >= 50% for `C[C@@H]1CCN(C(=O)CC#N)C[C@@H]1N(C)c1ncnc2[nH]ccc12` ?
1

inhibition >= 50% for `CC(=O)c1c(C)c2cnc(Nc3ccc(N4CCNCC4)cn3)nc2n(C2CCCC2)c1=O` ?
0

inhibition >= 50% for `O=C(Nc1ccc(Oc2ccc(F)cc2)cc1)N1CCc2ncccc2[C@H]1c1ccc(F)cc1` ?
0

inhibition >= 50% for `CC(C)(C)c1cc(NC(=O)Nc2ccc(-c3cn4c(n3)sc3cc(OCCN5CCOCC5)ccc34)cc2)no1` ?
0

inhibition >= 50% for `CN(C)C/C=C/C(=O)Nc1cc2c(Nc3ccc(F)c(Cl)c3)ncnc2cc1O[C@H]1CCOC1` ?
0

----------
Molecular target: Uracil-DNA glycosylase (Homo sapiens) (UniProt P13051);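 further: UNG excision on a quenched double-stranded DNA oligo probe, with APE1 added for strand incision and turnover, read as fluorescence at 594 nm as strands separate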
Sequence (P13051 whole entry): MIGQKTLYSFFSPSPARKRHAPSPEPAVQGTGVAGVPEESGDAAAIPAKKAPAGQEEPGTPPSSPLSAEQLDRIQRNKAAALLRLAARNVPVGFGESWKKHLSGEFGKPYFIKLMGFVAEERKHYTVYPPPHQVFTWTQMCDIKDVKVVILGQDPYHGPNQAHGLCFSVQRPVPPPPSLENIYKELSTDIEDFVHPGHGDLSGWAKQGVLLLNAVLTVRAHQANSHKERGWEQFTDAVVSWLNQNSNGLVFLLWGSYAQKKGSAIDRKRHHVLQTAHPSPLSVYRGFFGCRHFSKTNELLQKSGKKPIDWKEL
Details: Compound Concentration 10.0 uM, Hit No
Description: Inhibition of UNG by quantifying inhibition of UNG-mediated cleavage and dissociation of quenched duplex DNA oligonucleotides, measured as fluorescence at 594 nm. To generate a functional strand incision and increase turn-over this assay is coupled to APE1.
measureName: inhibition
Number first, unit second.

Quick one: inhibition for `NCCCNCCCCNCCC(=O)NCCCCCNC(=O)[C@H](CC(N)=O)NC(=O)Cc1ccc(O)cc1O` ?
-1.11%

Quick one: inhibition for `COCCc1ccc(-c2c(C)nc3c(N4CCOCC4)ccnn23)cn1` ?
6.75%

Quick one: inhibition for `Cc1nc(-c2ccc(C(F)(F)F)cc2)sc1COc1ccc([C@H](CC(=O)O)c2ccon2)cc1` ?
-5.51%

Quick one: inhibition for `CCOCCn1cc(C(=O)Nc2ccc(-n3nc(-c4cccnc4)cc3C(F)(F)F)cn2)ccc1=O` ?
1.33%

Quick one: inhibition for `CC(=O)[C@H]1CC[C@H]2[C@@H]3CC[C@H]4C[C@H](O)CC[C@]4(C)[C@H]3CC[C@]12C` ?
-1.14%

Quick one: inhibition for `O[C@H]1CC[C@H](Nc2ncc3nc(Nc4c(F)cc(F)cc4F)n([C@H]4CCOC4)c3n2)CC1` ?
2.17%

Quick one: inhibition for `CSc1ccc(C(=O)N[C@@H]2CCCC[C@@H]2NC(=O)CNC(=O)c2cc(C(F)(F)F)ccc2NC(=O)NC(C)C)cc1` ?
-0.695%

Quick one: inhibition for `FC(F)(F)Oc1ccc(-c2ccc3nnc(C(F)(F)F)n3c2)cc1` ?
-4.54%

Quick one: inhibition for `COc1ccccc1N1CCN(C[C@@H](C(=O)NC(C)(C)C)c2ccccc2)CC1` ?
-2.81%

Quick one: inhibition for `COCc1nc2cnc3cc(-c4c(C)noc4C)c(OC[C@H]4CCNC4)cc3c2n1[C@H](C)c1ccccc1` ?
-1.93%

Quick one: inhibition for `Cn1cc(-n2cnc3c(NCc4nc5cc(Cl)c(Cl)cc5[nH]4)nc(N4CCOCC4)nc32)cn1` ?
3.73%

Quick one: inhibition for `c1cnc2cc3c(cc2n1)[C@@H]1CNC[C@H]3C1` ?
-9.92%

Quick one: inhibition for `NC[C@@H]1O[C@H](C23CC4CC(CC(C4)C2)C3)Cc2c1ccc(O)c2O` ?
-2.15%

Quick one: inhibition for CC(C)c1c(CN(C)C(C)Cc2ccccc2)n(C)n(-c2ccccc2)c1=O (stereo not given) ?
1.7%

Quick one: inhibition for `Clc1cccc(-n2nnnc2NCc2ccccc2Oc2ccccn2)c1Cl` ?
-1.01%

Quick one: inhibition for `Cc1cc(C(C)(C)C)c(O)c(C)c1CC1=NCCN1` ?
-7.32%

Quick one: inhibition for `CC[C@H](C)C(=O)O[C@H]1C[C@@H](C)C=C2C=C[C@H](C)[C@H](CC[C@@H]3C[C@@H](O)CC(=O)O3)[C@H]21` ?
8.04%

Quick one: inhibition for `NCCc1c[nH]c2ccc(O)cc12` ?
-8.18%

Quick one: inhibition for `CC[C@@H]1CN2C(=O)N(C)c3nc(-c4ccccc4)[nH]c3C2=N1` ?
-9.41%

Quick one: inhibition for `CCS(=O)(=O)c1cc2cc(C[C@](O)(CC(C)(C)c3ccc(F)cc3C(N)=O)C(F)(F)F)[nH]c2cn1` ?
-6.06%

Quick one: inhibition for `CC(C)c1cc(Br)c(NC(=O)Nc2cccnc2)c(Br)c1` ?
-2.82%

Quick one: inhibition for `Cc1nc2ccc(Oc3ccc(F)cc3)cc2c(=O)n1C[C@H]1CCCN(C(C)C)C1` ?
-4.71%

Quick one: inhibition for `Cc1nc(C#Cc2cccnc2)cs1` ?
-6.91%

Quick one: inhibition for `COc1cc(NC(=O)CCN2CCC(OC(=O)Nc3ccccc3-c3ccccc3)CC2)c(Cl)cc1CNC[C@H](O)c1ccc(O)c2[nH]c(=O)ccc12` ?
-5.99%

Quick one: inhibition for `O=C(O)C1CN(Cc2ccc(OCc3ccc(Cl)c(Cl)c3)cc2)C1` ?
-2.44%

Quick one: inhibition for `O=C(Nc1nc2cccc(-c3ccc(CN4CCS(=O)(=O)CC4)cc3)n2n1)C1CC1` ?
2.98%

Quick one: inhibition for `O=C(NCc1cccnc1OCC(F)(F)F)c1cncc(-c2ccc(Cl)cc2)c1` ?
-5.85%

Quick one: inhibition for Cc1cccc([C@H]2CC[C@@H](N3CCN(c4cccnc4)CC3)CC2)c1 (mixture of isomers) ?
1.66%

Quick one: inhibition for `CCOC(=O)c1cnn(-c2ccc(NC(=O)C(Cl)=C(Cl)Cl)cc2)c1C(F)(F)F` ?
2.51%

Quick one: inhibition for `CC(=O)Nc1ncc(CN2CCC[C@H](Cc3cc(C)nc(C)c3)C2)s1` ?
6.88%

Quick one: inhibition for `CCCN(CCC)[C@@H]1CCc2ccc3[nH]c(C#N)cc3c2C1` ?
-7.96%

Quick one: inhibition for `CN(CCOc1ccc(C[C@H](Nc2ccccc2C(=O)c2ccccc2)C(=O)O)cc1)c1ccccn1` ?
-0.00636%

Quick one: inhibition for `NCCc1cccs1` ?
-3.89%

Quick one: inhibition for `O=C(c1cc(C2CC2)on1)N(C1CCCCC1)C1CCCCC1` ?
-1.05%

Quick one: inhibition for `Nc1nc(NCc2ccccc2)nc(-c2ccccc2CO)n1` ?
2.12%

Quick one: inhibition for `Cc1c(N2CCNCC2)nc2ccc(Br)cc2c1C(=O)NC[C@H](CCC(=O)O)c1ccccc1Cl` ?
3.28%

Quick one: inhibition for `CN(C)[C@@H]1CCN(c2cc(-c3ccccc3)nc3ccnn23)C1` ?
7.63%

Quick one: inhibition for `C/C(=N\NC(=O)[C@@H]1C(=O)NC[C@H]1c1ccccc1)c1cccc(Br)c1` ?
-1.98%

Quick one: inhibition for `CCCCc1nc2ccc(NC(=O)NC3CCCCC3)cc2n1Cc1ccc(-c2ccccc2C(=O)O)cc1` ?
-9.57%

Quick one: inhibition for `FC(F)(F)c1c(N2CCC(c3ccccc3)CC2)ccn2c(CC3CC3)nnc12` ?
-5.14%

Cited source for all entries: ChEMBL document CHEMBL5665443
